- Test system: M14 melanoma
- assay overview: NCI-60 one-dose screen, 48 h
- protocol conditions: 10 µM unless noted
The panel holds about 83,000 compounds, 20% with a hit somewhere; the sample as a whole holds those more often. Active and inactive are the calls of the source. The calls were made as follows: active = growth percent below 10; inactive = the rest.
Classes used: active, inactive

- compound: "Oc1c(CCl)cc(Cl)cc1Cc1cc(Cl)cc(Cc2cc(Cl)cc(CCl)c2O)c1O"
  target entity: "M14 melanoma"
  cat: "inactive"
- compound: "O=C(Nc1nc2ccc(C(F)(F)F)cc2s1)c1cc(Cl)ccc1O"
  target entity: "M14 melanoma"
  cat: "inactive"
- compound: "Nn1c(SCC(=O)Nc2ccc(Cl)cc2)nnc1-c1cc(F)c(Cl)cc1Cl"
  target entity: "M14 melanoma"
  cat: "inactive"
- compound: "C#C[C@@]1(O)[C@@H](CO)O[C@@H](n2ccc3c(N)ncnc32)[C@@H]1O"
  target entity: "M14 melanoma"
  cat: "active"
- compound: "O=C1CCC23OC(c4ccccc4N12)C(O)C(O)C3O (stereo unspecified)"
  target entity: "M14 melanoma"
  cat: "inactive"
- compound: "COc1ccc(-n2cc(-c3ccc(Cl)c(Cl)c3)[nH]c2=O)cc1OC"
  target entity: "M14 melanoma"
  cat: "inactive"
- compound: "COc1ccc2c(c1)C1(C(=O)N2)C(C#N)=C(c2ccccc2)Nc2c1c(-c1ccccc1)nn2-c1ccccc1 (stereo unspecified)"
  target entity: "M14 melanoma"
  cat: "inactive"
- compound: "C=C1C(=O)O[C@H]2[C@H]1CC/C(COC(=O)CCC(=O)OC/C1=C/CC[C@@]3(C)O[C@H]3[C@H]3OC(=O)C(=C)[C@@H]3CC1)=C\\CC[C@@]1(C)O[C@@H]21"
  target entity: "M14 melanoma"
  cat: "active"
- compound: "COc1cc(C2=NNC(c3ccc(N(C)C)cc3)C2)cc(OC)c1OC (stereo unspecified)"
  target entity: "M14 melanoma"
  cat: "inactive"
- compound: "CC(=O)c1cc2c(N)c(C(=O)Nc3ccccn3)sc2nc1C"
  target entity: "M14 melanoma"
  cat: "inactive"
- compound: "NC(=O)c1ccc(C2C3=C(CCCC3=O)OC3=C2C(=O)c2ccccc2C3=O)cc1 (stereo unspecified)"
  target entity: "M14 melanoma"
  cat: "active"
- compound: "O=C1CC(c2ccc(O)c(O)c2)Oc2cc(O)c([C@@H]3O[C@H](CO)[C@@H](O)[C@H](O)[C@H]3O)c(O)c21 (stereo partly specified)"
  target entity: "M14 melanoma"
  cat: "inactive"
- compound: "CC(=O)OC[C@]12CC[C@@H](c3cn(Cc4ccc(Cn5cc([C@@H]6CC[C@]7(COC(C)=O)CC[C@]8(C)[C@H](CC[C@@H]9[C@@]%10(C)CC[C@H](OC(C)=O)C(C)(C)[C@@H]%10CC[C@]98C)[C@@H]67)nn5)cc4)nn3)[C@@H]1[C@H]1CC[C@@H]3[C@@]4(C)CC[C@H](OC(C)=O)C(C)(C)[C@@H]4CC[C@@]3(C)[C@]1(C)CC2"
  target entity: "M14 melanoma"
  cat: "inactive"
- compound: "COc1cc(C2=NN(C=O)C(c3cccc(Nc4ccnc5cc(C(F)(F)F)ccc45)c3)C2)cc(OC)c1OC (stereo unspecified)"
  target entity: "M14 melanoma"
  cat: "inactive"
- compound: "CCCCn1c2cc(OCc3cn(-c4ccc(Cl)cc4)nn3)ccc2c2ccnc(C)c21"
  target entity: "M14 melanoma"
  cat: "inactive"
- compound: "CCCCc1n(Cc2ccc3ccccc3n2)cc[n+]1Cc1ccc2ccccc2c1"
  target entity: "M14 melanoma"
  cat: "active"
- compound: "COc1ccc2oc(=O)cc(-c3nc4ccc(N)cc4[nH]3)c2c1"
  target entity: "M14 melanoma"
  cat: "inactive"
- compound: "Nc1c(C(=O)Nc2ccccc2)sc2nc3c(cc12)CN(C(=O)OCc1ccccc1)CC3"
  target entity: "M14 melanoma"
  cat: "inactive"
- compound: "COc1cc(NC(=O)Nc2cnc(Nc3ccc(N4CCOCC4)cc3)nc2Oc2ccc(F)cc2)cc(OC)c1"
  target entity: "M14 melanoma"
  cat: "inactive"
- compound: "CCCCC(=O)Nc1c(C(=O)Nc2ccccc2)sc2nc3c(cc12)C(OC(=O)CCCC)CCC3 (stereo unspecified)"
  target entity: "M14 melanoma"
  cat: "inactive"
- compound: "CNc1cccc2c1C(=O)c1cccc(N)c1C2=O"
  target entity: "M14 melanoma"
  cat: "inactive"
- compound: "C#C[C@@]1(O)[C@@H](CO)O[C@@H](n2cnc3c(-c4ccccc4)ncnc32)[C@@H]1O"
  target entity: "M14 melanoma"
  cat: "inactive"
- compound: "S=C(Nc1ccccc1)c1ccccn1"
  target entity: "M14 melanoma"
  cat: "inactive"
- compound: "O=C(CCCCCCCCC(=O)Nc1cccc(C2=NCCN2)c1)Nc1cccc(C2=NCCN2)c1"
  target entity: "M14 melanoma"
  cat: "inactive"
- compound: "O=CN1N=C(c2ccc(F)cc2)CC1c1cccc(Nc2ccnc3cc(C(F)(F)F)ccc23)c1 (stereo unspecified)"
  target entity: "M14 melanoma"
  cat: "inactive"
- compound: "CC(=O)c1ccc(NC(=O)CSc2nnc(-c3cc(-c4ccc(Cl)cc4)nc4ccccc34)o2)cc1"
  target entity: "M14 melanoma"
  cat: "inactive"
- compound: "Cc1ccc(-c2nc(C#N)c(S(=O)(=O)N(C)CCO)o2)cc1"
  target entity: "M14 melanoma"
  cat: "inactive"
- compound: "COc1ccc(NC(=O)c2ccc(Nc3ncnc4[nH]c(C)c(C)c34)cc2)cc1"
  target entity: "M14 melanoma"
  cat: "inactive"
- compound: "CCCCn1c(=O)c(/C=C/C(=O)/C=C/c2cc3ccccc3n(CCCC)c2=O)cc2ccccc21"
  target entity: "M14 melanoma"
  cat: "active"
- compound: "O=C1CS/C(=N/c2nnc(-c3ccc(O)cc3)s2)N1"
  target entity: "M14 melanoma"
  cat: "inactive"
- compound: "CCOC(=O)c1c(C)nc2c(c1N)/C(=C/c1ccc[nH]1)C(=O)N2Cc1ccc(C(F)(F)F)cc1"
  target entity: "M14 melanoma"
  cat: "inactive"
- compound: "Sc1cccc2cccnc12"
  target entity: "M14 melanoma"
  cat: "active"
- compound: "COc1cccc(NC(=O)Nc2ccc(Nc3ncnc4[nH]c(C)c(C)c34)cc2)c1"
  target entity: "M14 melanoma"
  cat: "inactive"
- compound: "COc1ccc(Sc2[nH]c(C(C)=O)c3ccccc23)cc1"
  target entity: "M14 melanoma"
  cat: "inactive"
- compound: "CN1CCN(CC#CCOC(=O)CNC(=O)[C@]23CCC(C)(C)C[C@H]2C2=CC[C@@H]4[C@@]5(C)CC[C@H](O)C(C)(C)[C@@H]5CC[C@@]4(C)[C@]2(C)CC3)CC1"
  target entity: "M14 melanoma"
  cat: "inactive"
- compound: "C=C1C(=O)O[C@H]2[C@H]1CC/C(C=Nc1c(N)cc(F)cc1Br)=C\\CC[C@@]1(C)O[C@@H]21"
  target entity: "M14 melanoma"
  cat: "inactive"
